- PROTOCOL NOTES: Pharmacokinetics in moderate hepatic impairment vs matched normal subjects (Example A-13)
- MEASUREMENT CONDITIONS: human, plasma, 400 mg, AUC, Mean, Single Dose 400 mg, Normal
METRIC NAME: AUC (ng·h/mL)
Give bare numbers, in ng·h/mL.

Quick one: AUC of COC(=O)[C@@H]1CC2=CC(=O)CC[C@]2(C)[C@@]23O[C@@H]2C[C@@]2(C)[C@@H](CC[C@@]24CCC(=O)O4)[C@H]13 ?
31000

----------
- PROTOCOL NOTES: Pharmacokinetics in moderate hepatic impairment vs matched normal subjects (Example A-13)
- MEASUREMENT CONDITIONS: human, plasma, 400 mg, Cmax, least squares mean, Single Dose 400 mg, Moderate Impairment
METRIC NAME: Cmax (ng/mL)
Numbers only, in ng/mL.

Quick one: Cmax of COC(=O)[C@@H]1CC2=CC(=O)CC[C@]2(C)[C@@]23O[C@@H]2C[C@@]2(C)[C@@H](CC[C@@]24CCC(=O)O4)[C@H]13 ?
3410

----------
- PROTOCOL NOTES: Pharmacokinetics in moderate hepatic impairment vs matched normal subjects (Example A-13)
- MEASUREMENT CONDITIONS: human, plasma, 400 mg, Cmax, least squares mean, Multiple Dose 400 mg QD, Moderate Impairment
METRIC NAME: Cmax (ng/mL)
Give bare numbers, in ng/mL.

Quick one: Cmax of COC(=O)[C@@H]1CC2=CC(=O)CC[C@]2(C)[C@@]23O[C@@H]2C[C@@]2(C)[C@@H](CC[C@@]24CCC(=O)O4)[C@H]13 [Eplerenone] ?
3810

----------
- PROTOCOL NOTES: Pharmacokinetics in moderate hepatic impairment vs matched normal subjects (Example A-13)
- MEASUREMENT CONDITIONS: human, plasma, 400 mg, Cmax, least squares mean, Multiple Dose 400 mg QD, Normal
METRIC NAME: Cmax (ng/mL)
Give bare numbers, in ng/mL.

Quick one: Cmax of COC(=O)[C@@H]1CC2=CC(=O)CC[C@]2(C)[C@@]23O[C@@H]2C[C@@]2(C)[C@@H](CC[C@@]24CCC(=O)O4)[C@H]13 [Eplerenone] ?
3670

----------
- PROTOCOL NOTES: Pharmacokinetics in moderate hepatic impairment vs matched normal subjects (Example A-13)
- MEASUREMENT CONDITIONS: human, plasma, 400 mg, T1/2, Mean, Single Dose 400 mg, Normal
METRIC NAME: half-life (h)
Answers are plain numbers, in h.

Quick one: half-life of COC(=O)[C@@H]1CC2=CC(=O)CC[C@]2(C)[C@@]23O[C@@H]2C[C@@]2(C)[C@@H](CC[C@@]24CCC(=O)O4)[C@H]13 ?
6.31

----------
- PROTOCOL NOTES: Pharmacokinetics and absorption of [14C]eplerenone in the rat (Example A-9)
- Type: in vivo
- MEASUREMENT CONDITIONS: rat, plasma; oral 15 mg/kg, male rats
- Procedure: Plasma, urine and fecal samples were analyzed for total radioactivity.
METRIC NAME: Cmax (ng/mL)
Give bare numbers, in ng/mL.

Quick one: Cmax of COC(=O)[C@@H]1CC2=CC(=O)CC[C@]2(C)[C@@]23O[C@@H]2C[C@@]2(C)[C@@H](CC[C@@]24CCC(=O)O4)[C@H]13 [Eplerenone] ?
1710

----------
- PROTOCOL NOTES: Pharmacokinetics in moderate hepatic impairment vs matched normal subjects (Example A-13)
- MEASUREMENT CONDITIONS: human, plasma, 400 mg, T1/2, Mean, Single Dose 400 mg, Moderate
METRIC NAME: half-life (h)
One number for each entry, in h.

Quick one: half-life of COC(=O)[C@@H]1CC2=CC(=O)CC[C@]2(C)[C@@]23O[C@@H]2C[C@@]2(C)[C@@H](CC[C@@]24CCC(=O)O4)[C@H]13 [Eplerenone] ?
6.78

----------
- PROTOCOL NOTES: Pharmacokinetics in moderate hepatic impairment vs matched normal subjects (Example A-13)
- MEASUREMENT CONDITIONS: human, plasma, 400 mg, Tmax, Mean, Single Dose 400 mg, Moderate
METRIC NAME: Tmax (h)
Answers are plain numbers, in h.

Quick one: Tmax of COC(=O)[C@@H]1CC2=CC(=O)CC[C@]2(C)[C@@]23O[C@@H]2C[C@@]2(C)[C@@H](CC[C@@]24CCC(=O)O4)[C@H]13 ?
2.56

----------
- PROTOCOL NOTES: Pharmacokinetics in moderate hepatic impairment vs matched normal subjects (Example A-13)
- MEASUREMENT CONDITIONS: human, plasma, 400 mg, Single Dose AUC(0-∞), linear kinetics assessment, Moderate Hepatic Impairment
METRIC NAME: AUC(0-inf)

Quick one: AUC(0-inf) of COC(=O)[C@@H]1CC2=CC(=O)CC[C@]2(C)[C@@]23O[C@@H]2C[C@@]2(C)[C@@H](CC[C@@]24CCC(=O)O4)[C@H]13 [Eplerenone] ?
49800 ng·h/mL

----------
- PROTOCOL NOTES: Pharmacokinetics in moderate hepatic impairment vs matched normal subjects (Example A-13)
- MEASUREMENT CONDITIONS: human, plasma, 400 mg, AUC, Mean, Multiple Dose 400 mg QD, Moderate hepatic impairment
METRIC NAME: AUC (ng·h/mL)
Numbers only, in ng·h/mL.

Quick one: AUC of COC(=O)[C@@H]1CC2=CC(=O)CC[C@]2(C)[C@@]23O[C@@H]2C[C@@]2(C)[C@@H](CC[C@@]24CCC(=O)O4)[C@H]13 ?
48800

----------
- PROTOCOL NOTES: Pharmacokinetics in moderate hepatic impairment vs matched normal subjects (Example A-13);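 also: impaired subjects were Child-Pugh Class B with ascites, compared against healthy volunteers matched for sex, age, weight and smoking, blood sampled before and after dosing on Days 1 and 7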
- MEASUREMENT CONDITIONS: human, plasma, 400 mg, Tmax, Mean, Single Dose 400 mg, Normal
METRIC NAME: Tmax

Quick one: Tmax of COC(=O)[C@@H]1CC2=CC(=O)CC[C@]2(C)[C@@]23O[C@@H]2C[C@@]2(C)[C@@H](CC[C@@]24CCC(=O)O4)[C@H]13 [Eplerenone] ?
2.03 h

----------
- PROTOCOL NOTES: Food effect pharmacokinetic studies, Japan and Ex-Japan (Example A-11)
- Format: in vivo, human
- MEASUREMENT CONDITIONS: male, human, in vivo, oral, 100 mg, Ex-Japan, single 100 mg, Fasted
- Description: The […] trials included (i) a single dose tolerability trial, and (ii) a multiple dose tolerability trial, and (iii) a food effect study. Both single dose and multiple dose tolerability trials were conducted in Japan utilizing healthy male Japanese subjects. […] Six subjects who received the 100 mg dose also participated in the food effect treatment arm of the single dose tolerability trial. […]
METRIC NAME: AUC(0-inf)

Quick one: AUC(0-inf) of COC(=O)[C@@H]1CC2=CC(=O)CC[C@]2(C)[C@@]23O[C@@H]2C[C@@]2(C)[C@@H](CC[C@@]24CCC(=O)O4)[C@H]13 ?
9060 ng·h/mL

----------
- PROTOCOL NOTES: Food effect pharmacokinetic studies, Japan and Ex-Japan (Example A-11)
- Format: in vivo, human
- MEASUREMENT CONDITIONS: male, human, in vivo, oral, 100 mg, Japan, single 100 mg, Fed
- Experimental: The […] trials included (i) a single dose tolerability trial, and (ii) a multiple dose tolerability trial, and (iii) a food effect study. Both single dose and multiple dose tolerability trials were conducted in Japan utilizing healthy male Japanese subjects. […] Six subjects who received the 100 mg dose also participated in the food effect treatment arm of the single dose tolerability trial. […]
METRIC NAME: AUC(0-inf) (ng·h/mL)
Numbers only, in ng·h/mL.

Quick one: AUC(0-inf) of COC(=O)[C@@H]1CC2=CC(=O)CC[C@]2(C)[C@@]23O[C@@H]2C[C@@]2(C)[C@@H](CC[C@@]24CCC(=O)O4)[C@H]13 ?
10900

----------
- PROTOCOL NOTES: Food effect pharmacokinetic studies, Japan and Ex-Japan (Example A-11)
- Format: in vivo, human
- MEASUREMENT CONDITIONS: male, human, in vivo, oral, 100 mg, Japan, single 100 mg, Fasted
METRIC NAME: AUC(0-inf) (ng·h/mL)
Answers are plain numbers, in ng·h/mL.

Quick one: AUC(0-inf) of COC(=O)[C@@H]1CC2=CC(=O)CC[C@]2(C)[C@@]23O[C@@H]2C[C@@]2(C)[C@@H](CC[C@@]24CCC(=O)O4)[C@H]13 [Eplerenone] ?
8970

----------
- PROTOCOL NOTES: Food effect pharmacokinetic studies, Japan and Ex-Japan (Example A-11)
- Type: in vivo, human
- MEASUREMENT CONDITIONS: male, human, in vivo, oral, 100 mg, Ex-Japan, single 100 mg, Fasted; read-out: AUC (0-lqc)
METRIC NAME: AUC (ng·h/mL)
Answers are plain numbers, in ng·h/mL.

Quick one: AUC of COC(=O)[C@@H]1CC2=CC(=O)CC[C@]2(C)[C@@]23O[C@@H]2C[C@@]2(C)[C@@H](CC[C@@]24CCC(=O)O4)[C@H]13 ?
8940
